# Tested on: glycogen synthase kinase-3 (GSK3A per assay name; protocol says GSK3B)
# ASSAY PROCEDURE: GSK3 binders on small-molecule microarrays, primary screen, biochemical, small-molecule microarray, 635 nm fluorescence, GSK3A (AID 1103); further: the record names both GSK3A and GSK3B
# PROTOCOL CONDITIONS: small-molecule microarray binding, fluorescence 635 nm; higher = more signal
OBSERVED PROPERTY: composite z-score

Sample O=C1O[C@@H](c2ccccc2)[C@@H](c2ccccc2)N2[C@@H](c3ccc(O)cc3)[C@]3(C(=O)Nc4ccccc43)[C@@H](C(=O)O)[C@H]12 — what was its composite z-score?
0.536

Sample C=CCOC(=O)[C@H]1[C@@H]2C(=O)O[C@@H](c3ccccc3)[C@@H](c3ccccc3)N2[C@@H](c2ccc(OCCOC(=O)[C@H]3C[C@H]4C(=O)N[C@@H](Cc5ccccc5)C(=O)N4[C@H]3c3ccc(O)cc3)cc2)[C@]12C(=O)Nc1ccccc12 — what was its composite z-score?
1.18

Sample CCOC(=O)CCN1C(=O)[C@H]2[C@H]3[C@H](O)[C@H](O)CC(=NNC(=O)OCc4ccc(OC)cc4)[C@@H]3CC[C@H]2C1=O — what was its composite z-score?
0.754

Sample COCCCNC(=O)[C@]1(Cc2ccccc2)N=C(c2ccc(OCCCO)cc2)O[C@@H]1c1ccccc1 — what was its composite z-score?
0.618

Sample Cc1cc2c(c(=O)o1)[C@H](O)[C@H]1O[C@H]1C2=O — what was its composite z-score?
0.191

Sample C=CC[C@@H]1C=C[C@H](ON=C(C)CCN2CCc3nc(CC)c(CC)cc3C2)[C@@H](CO)O1 — what was its composite z-score?
0.491

Sample CO[C@H]1COC(=O)[C@H](C)COC(=O)CC=C[C@@H](C)[C@H](OC)COC(=O)CC=C[C@@H]1C — what was its composite z-score?
0.432

* * *

# TARGET UNDER TEST: Neurogenic locus notch homolog protein 3 (Homo sapiens) (UniProt Q9UM47)
# Sequence (Q9UM47 whole entry, looked up): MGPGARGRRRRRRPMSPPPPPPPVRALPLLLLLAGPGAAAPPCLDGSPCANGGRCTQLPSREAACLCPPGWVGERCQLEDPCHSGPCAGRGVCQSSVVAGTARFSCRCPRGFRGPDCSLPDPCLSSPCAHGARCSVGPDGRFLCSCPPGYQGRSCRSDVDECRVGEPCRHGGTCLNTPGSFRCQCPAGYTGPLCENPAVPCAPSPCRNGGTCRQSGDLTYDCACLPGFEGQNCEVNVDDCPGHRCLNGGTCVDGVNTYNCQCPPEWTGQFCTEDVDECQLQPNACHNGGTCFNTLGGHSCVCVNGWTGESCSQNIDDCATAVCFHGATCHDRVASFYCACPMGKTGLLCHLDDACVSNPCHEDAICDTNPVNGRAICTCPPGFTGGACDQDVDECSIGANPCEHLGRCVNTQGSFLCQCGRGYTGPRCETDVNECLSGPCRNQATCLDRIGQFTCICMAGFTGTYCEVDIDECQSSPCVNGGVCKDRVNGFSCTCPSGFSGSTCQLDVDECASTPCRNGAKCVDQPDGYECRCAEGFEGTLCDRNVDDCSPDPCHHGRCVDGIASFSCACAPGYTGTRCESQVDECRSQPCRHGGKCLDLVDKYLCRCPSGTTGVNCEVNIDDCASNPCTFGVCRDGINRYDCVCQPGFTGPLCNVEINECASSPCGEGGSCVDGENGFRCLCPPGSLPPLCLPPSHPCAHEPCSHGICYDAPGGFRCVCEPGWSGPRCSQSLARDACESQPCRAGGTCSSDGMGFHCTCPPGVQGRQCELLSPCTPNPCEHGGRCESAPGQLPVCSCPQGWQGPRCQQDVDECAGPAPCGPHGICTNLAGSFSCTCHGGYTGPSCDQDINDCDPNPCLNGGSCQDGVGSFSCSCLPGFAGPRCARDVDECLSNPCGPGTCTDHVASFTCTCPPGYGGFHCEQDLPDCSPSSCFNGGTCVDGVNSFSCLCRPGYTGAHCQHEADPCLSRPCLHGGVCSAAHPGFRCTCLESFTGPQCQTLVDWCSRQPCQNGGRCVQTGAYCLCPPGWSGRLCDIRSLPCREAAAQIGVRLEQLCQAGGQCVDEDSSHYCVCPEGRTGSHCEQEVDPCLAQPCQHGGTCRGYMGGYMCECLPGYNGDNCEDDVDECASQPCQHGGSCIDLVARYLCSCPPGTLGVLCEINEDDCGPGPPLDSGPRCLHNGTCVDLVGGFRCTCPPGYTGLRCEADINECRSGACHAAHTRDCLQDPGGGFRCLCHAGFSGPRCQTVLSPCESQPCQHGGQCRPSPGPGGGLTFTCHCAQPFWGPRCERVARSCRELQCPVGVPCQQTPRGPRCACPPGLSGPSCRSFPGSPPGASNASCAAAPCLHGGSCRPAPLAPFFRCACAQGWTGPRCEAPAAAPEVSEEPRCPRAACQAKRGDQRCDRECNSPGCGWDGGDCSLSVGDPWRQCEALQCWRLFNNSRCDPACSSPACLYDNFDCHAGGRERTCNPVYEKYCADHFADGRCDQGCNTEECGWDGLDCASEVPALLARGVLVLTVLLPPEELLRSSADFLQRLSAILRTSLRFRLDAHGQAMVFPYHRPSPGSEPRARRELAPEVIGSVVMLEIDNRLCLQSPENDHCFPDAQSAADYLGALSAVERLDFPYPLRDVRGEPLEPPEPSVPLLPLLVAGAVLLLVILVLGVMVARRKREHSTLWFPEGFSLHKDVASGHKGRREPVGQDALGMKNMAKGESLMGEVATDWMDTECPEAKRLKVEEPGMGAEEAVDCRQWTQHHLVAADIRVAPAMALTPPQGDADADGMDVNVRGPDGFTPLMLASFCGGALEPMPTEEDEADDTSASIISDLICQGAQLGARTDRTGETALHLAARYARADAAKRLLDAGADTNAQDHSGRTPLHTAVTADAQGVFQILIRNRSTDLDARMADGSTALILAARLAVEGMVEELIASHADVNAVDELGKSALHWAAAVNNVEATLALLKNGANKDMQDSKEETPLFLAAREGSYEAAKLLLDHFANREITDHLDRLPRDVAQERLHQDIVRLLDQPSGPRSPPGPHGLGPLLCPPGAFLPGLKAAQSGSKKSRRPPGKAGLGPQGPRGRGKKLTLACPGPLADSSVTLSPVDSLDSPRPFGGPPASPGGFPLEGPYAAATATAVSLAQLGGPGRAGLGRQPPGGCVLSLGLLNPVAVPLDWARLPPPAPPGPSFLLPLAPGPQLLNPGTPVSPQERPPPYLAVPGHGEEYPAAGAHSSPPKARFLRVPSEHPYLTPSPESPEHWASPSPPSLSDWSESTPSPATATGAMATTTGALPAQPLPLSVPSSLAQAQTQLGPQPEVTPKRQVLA
# ASSAY PROCEDURE: NOTCH3 binders on small-molecule microarray, primary screen, biochemical, 635/667 nm fluorescence (AID 1096)
# PROTOCOL CONDITIONS: NOTCH3 binding, 635 nm fluorescence, higher = more signal
// classify(record): look up composite z-score in ranges bottom end: < 0.03; midrange: ≥ 0.03 and < 0.7; top end: ≥ 0.7

Hey, which category is NC(=O)NCC#Cc1ccc2c(c1)[C@]1(C(=O)N2)[C@H](c2ccc(O)cc2)N2[C@H](c3ccccc3)[C@H](c3ccccc3)OC(=O)[C@H]2[C@@H]1C(=O)N1CCCCCCC1 in, do you know?
top end

Hey, which category is CO[C@H]1COC(=O)[C@H](C)NC(=O)[C@@H](C)COC(=O)CC=C[C@@H]1C in, do you know?
midrange

Hey, which category is CC(CCN1CCc2nc(-c3ccccc3)c(-c3ccccc3)cc2C1)=NOC[C@@H](C)[C@H](OCc1ccccc1)C(C)C in, do you know?
bottom end

Hey, which category is CC(=O)O[C@H]1C2=C(C(=O)[C@@H]3O[C@@H]31)[C@H]1C(C)O[C@@H]2[C@@]23C(=O)[C@@H]4O[C@@H]4[C@@H](O)C2=CO[C@H](C)[C@@H]13 (some centres undefined) in, do you know?
bottom end

Hey, which category is COC(=O)[C@H](C)NC(=O)CCC1CC(OC(=O)NCc2ccc3c(c2)OCO3)CC2(CCCC(COC(=O)NCCOc3ccccc3)O2)O1 (some centres undefined) in, do you know?
top end

Hey, which category is CO[C@@H]1COC(=O)CC=C[C@@H](C)COC(=O)[C@H](COCc2ccccc2)NC(=O)CC=C[C@H]1C in, do you know?
bottom end

Hey, which category is CCN1C(=O)[C@H]2[C@H]3[C@H](O)[C@H](O)CC(=NOC[C@@H](C)[C@H](OCc4ccccc4)C(C)C)[C@@H]3CC[C@H]2C1=O in, do you know?
midrange

Hey, which category is C[C@@H]1C=CCC(=O)OC[C@H](C)C(=O)OC[C@H]2O[C@H]1C=C[C@H]2O in, do you know?
midrange

Hey, which category is CCCC[C@@H](O)C1=C(C)C[C@H]2C(=O)N(Cc3ccccc3)C(=O)[C@H]2[C@H]1CO in, do you know?
midrange

Hey, which category is CCOC(=O)[C@H](Cc1ccccc1)NC(=O)CCC1CC(OC(=O)NCc2ccc3c(c2)OCO3)CC2(CCCC(COC(=O)NCc3cccc(C(F)(F)F)c3)O2)O1 (some centres undefined) in, do you know?
top end

Hey, which category is O=C1c2ccccc2[C@@]2(Cc3ccccc3N(C3CC3)C2=O)[C@H](c2ccc(CO)cc2)N1Cc1ccccc1C(F)(F)F in, do you know?
bottom end

Hey, which category is C=CCNC(=O)[C@H]1[C@@H]2C(=O)O[C@@H](c3ccccc3)[C@@H](c3ccccc3)N2[C@@H](c2ccc(O)cc2)[C@]12C(=O)N(C(=O)OCCOC)c1ccc(C#CC3=CCCCC3)cc12 in, do you know?
top end

Hey, which category is C#CCCCON=C1C[C@@H](O)[C@@H](O)[C@@H]2[C@@H]3C(=O)N(CCC(=O)OCC)C(=O)[C@@H]3CC[C@@H]12 in, do you know?
bottom end
